Just for reference, patent US20240254121A1 is where these values come from.

The following molecules are shown together with reported pest or weed control at 32 µg/disc, 100 g/ha values.
# Test system: larvae of the banded cucumber beetle (Diabrotica balteata)
# experimental-protocol: Diabrotica balteata spray test
# Type: in vivo
# condition-info: 168 h, 100 g/ha (=32 μg/well), wheat seeds, after 7 days, read-out: efficacy (seedling growth)
Answer format: numeric, % implied, no suffix.

>>> result_number("CC(NC(=O)c1cc(OC(F)(F)F)cc(C(C)(F)F)c1)c1nc2cccnc2n1-c1ccc(C#N)cn1 (stereo not shown)")
100
>>> result_number("CC(NC(=O)c1cc(OC(F)(F)F)cc(S(=O)(=O)C(F)F)c1)c1nc2cccnc2n1-c1ccc(C#N)cn1 (stereo not shown)")
100
>>> result_number("CC(NC(=O)c1cc(OC(F)(F)F)cc(S(C)(=O)=O)c1)c1nc2cccnc2n1-c1ccc(Cl)cn1 (stereo not shown)")
100

**Query** Retrieve pest or weed control at 32 µg/disc, 100 g/ha measured for CC(NC(=O)c1cc(C(F)(F)F)cc(C(F)(F)F)c1)c1nc2cnccc2n1-c1ccc(Cl)cn1 (stereo not shown) and print it.
**Result** 100
